System: Saccharomyces cerevisiae
Assay: protein stability index of tFT-peptide fusion (C-terminal peptide) (PSI (0-1 scale)); higher = more stable (slower turnover);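 also: PSI is a weighted mean of sequencing reads over stability bins, variants kept only with over 10 reads, mCherry proximal and sfGFP distal, peptide attached via GGGS linker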
Conditions: genetic background: cdc34-1; temperature: 37 C
value-type: protein stability index

# annotated cases, reported protein stability index shown
1) FFGRWWWSFLLA 0.582
2) GCFVDRVYVVVV 0.526
3) LGCRFCFVGVVG 0.589
4) GRWAFFTWLRWS 0.553
5) SLARPGLCFVIA 0.534

Now let's try a different one.
Input SLIVLRSIAVLD , output reported protein stability index.
0.484

====

Some sequences, each annotated with its measured protein stability index.
Test system: Saccharomyces cerevisiae
Test: protein stability index of tFT-peptide fusion (C-terminal peptide) (PSI (0-1 scale)); higher = more stable (slower turnover)
Settings: genetic background: doa10 deletion; temperature: 30 C
The answer should be written as a number, with no unit following it.

1) WSFYVVGRLLVN 0.106
2) LLFSVLLLGVGF 0.329
3) LPCPPSPASLPR 0.437
4) ARFCFRIFSFAS 0.0406
5) GPVRSPPSPTPR 0.674

// next entry
In one line, give reported protein stability index of the entry PRTTHTPLLIAS .
0.177

====

As shown below, each of these sequences has a reported protein stability index value.
Test system: Saccharomyces cerevisiae
Assay: protein stability index of tFT-peptide fusion (C-terminal peptide) (PSI (0-1 scale)); higher = more stable (slower turnover)
Details: genetic background: wild type; temperature: 30 C
Just the number, please.

1) GRSRAALASHIL 0.612
2) VRPREWMIPFEC 0.709
3) WGTGGGLGVGHV 0.726

Quote protein stability index reported for GIPPVLFAPPPL please.
0.696

Please look at this sequence and report its protein stability index: GGTGRVGEMGGR
0.755

====

Tested on: Saccharomyces cerevisiae
Test: protein stability index of tFT-peptide fusion (C-terminal peptide) (PSI (0-1 scale)); higher = more stable (slower turnover)
Conditions: genetic background: wild type; temperature: 30 C
Recorded measurements of protein stability index, one per entry
Reply: number alone, nothing else.

As a guide, the following entries are already answered.
1. VFHCFVSRRRFC 0.65
2. HGNFLTALVGRI 0.669
3. GFHCRLRVSTFG 0.585
4. VRVKRAGGGGVG 0.591

Using the record for THPRPTLTRCST , state its measured protein stability index.
0.734

Write down protein stability index measured for item RPPPSAIPPPSP
0.627

====

Test system: Saccharomyces cerevisiae
Experiment: protein stability index of tFT-peptide fusion (C-terminal peptide) (PSI (0-1 scale)); higher = more stable (slower turnover)
Conditions: genetic background: wild type; temperature: 30 C
value-type: protein stability index
// no unit string in output, number only

1. PLRGPPPPPLPI 0.677
2. SCSVGRRIGLGQ 0.688
3. GCGGLCQGGGGW 0.704

Give the reported protein stability index for this sequence. PFPLGPSLQTVI
0.681

Using the record for KPALPPITPNLC , state its measured protein stability index.
0.673

Give the reported protein stability index for this sequence. DLCSPWGVDGVK
0.696

Determine from records and report protein stability index for EEGVARYVERWV
0.675

Name the recorded protein stability index of the sequence listed here: CCFHRLRYSRAV
0.647

Assign protein stability index to the following record: DVISRSTRIMGE
0.617

Please report the measured protein stability index for SSLDTPSFDSSL
0.675

// provenance: the supplement of paper PMC10724198
